Numbers sourced from patent US20060128699A1.

# ASSAY_SYSTEM: Na, K-ATPase (Ovis aries)
# Construct: Na, K-ATPase will be purified from the outer medulla of frozen lamb kidney; from tissue; host or cells: outer medulla of frozen lamb kidney
# ASSAY_REMARKS: NKA assay started by addition of ATP
# Format: biochemical, lamb
# APPLIED_CONDITIONS: assay started by addition of ATP; IC50_aver. relative to digoxin
Lab note: compare ratio (digoxin) with 200, writing true if less and false if equal or more.

Below are worked cases with known answers.
COMPOUND | ASSAY_SYSTEM | LABEL_CLASS
O=C1C=CC2C(=C1[N+](=O)[O-])Oc1c(ccc(O)c1[N+](=O)[O-])C2c1ccccc1C(=O)O (centres unmarked) | Na, K-ATPase (Ovis aries) | true
Cc1cc(O)c2c(c1)C(=O)c1cc(O)cc(O)c1C2=O | Na, K-ATPase (Ovis aries) | false
CC(CCc1ccc(O)cc1)NCCc1ccc(O)c(O)c1 (centres unmarked) | Na, K-ATPase (Ovis aries) | true
COc1cccc2c1Sc1ccccc1C(=O)C2 | Na, K-ATPase (Ovis aries) | false

Does the reported ratio (digoxin) of Oc1cc(O)c2c(c1)O[C@H](c1ccc(O)c(O)c1)[C@@H](O)C2 [Compound 9, (+)-Catechin Hydrate] stay below 200? false
